z-score listing for selected compounds.
Test: compound effects on hepatocellular carcinoma cell viability – HepG2, calcein-AM fluorescence, 48 h, basal, profiling panel (AID 1164); note: test concentration not given here
Details: higher = more signal
Write the number on its own, no unit after it.

* CCCCC(=C=CC[C@H](O)c1ccccc1OCCO)C[C@H](O)c1ccccn1 | 1.04

Recall and state the measured z-score for `COCC(=C=CC[C@@H](O)c1ccccc1OCCO)C[C@@H](O)c1ccccn1` .
-0.0698

Recall and state the measured z-score for `COCCOC(=O)N1C(=O)[C@@]2(c3cc(C#CC4(O)CCCCCC4)ccc31)[C@H](C(=O)N1CCN(c3ncccn3)CC1)[C@H]1C(=O)O[C@H](c3ccccc3)[C@H](c3ccccc3)N1[C@@H]2c1ccc(O)cc1` .
0.871

Recall and state the measured z-score for `O=C(NCc1ccccc1)[C@]1(Cc2ccccc2)N=C(c2ccc(OCCCO)cc2)O[C@@H]1c1ccccc1` .
-1.83

====

Molecular target: Dickkopf-related protein 1 (Homo sapiens)
Test: small molecules binding DKK1 protein – biochemical, small-molecule microarray, 635 nm fluorescence scan, primary screen (AID 1106);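 note: score merges emission near 667 nm with signal to noise over three replicate slides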
Settings: higher = more signal
Answer criterion not met if composite z-score is under 0.2, and criterion met if it is 0.2 or more.

See these solved cases before continuing.
• COCCOC(=O)N1C(=O)[C@@]2(c3cc(C#Cc4ccc(OC)cc4)ccc31)[C@H](C(N)=O)[C@H]1C(=O)O[C@H](c3ccccc3)[C@H](c3ccccc3)N1[C@@H]2c1ccc(OCCO)cc1 = criterion met
• COC(=O)c1ccc(OC)c(/C=C\CC(CCc2ccccc2)OC(C)=O)c1 (configuration not stated) = criterion met
• C=CCNC(=O)[C@@H]1[C@H]2C(=O)O[C@H](c3ccccc3)[C@H](c3ccccc3)N2[C@H](c2ccc(O)cc2)[C@@]12C(=O)Nc1ccc(C#CCCO)cc12 = criterion not met

Is composite z-score for `CCCC[C@@H](O)C1=C(COc2ccccc2)Cn2c(=O)n(-c3ccccc3)c(=O)n2[C@H]1CO` at or above 0.2?
criterion not met

Is composite z-score for `[N-]=[N+]=NCc1ccccc1C[C@@]1(C(=O)NCCN2CCOCC2)N=C(c2ccc(OCCCO)cc2)O[C@@H]1c1ccccc1CN=[N+]=[N-]` at or above 0.2?
criterion met

Is composite z-score for Cc1ccc(C(C)CC(O)C2C=CC3C(=O)N(Cc4ccccc4)C(=O)C3N2n2cnnc2)o1 (configuration not stated) at or above 0.2?
criterion not met

Is composite z-score for `C=CC[C@]1(C(=O)N2CCOCC2)N=C(c2ccc(OCCCO)cc2)O[C@H]1c1ccccc1CN=[N+]=[N-]` at or above 0.2?
criterion not met

====

Assay: compound effects on multiple myeloma cell viability – MM1S, calcein-AM fluorescence, 48 h, basal, profiling panel (AID 1165);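 note: viability of MM1S multiple myeloma cells under basal unstimulated conditions; test concentration not given here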
Conditions: higher = more signal
Answer not satisfied if z-score is under -2, and satisfied if it is -2 or more.

- O=C(C=C(CC(O)c1cccc(Cl)c1)OCCF)OCCF (configuration not stated): satisfied

Is z-score for `Cc1ccc(S[C@]2(C(=O)O)CC(=O)N(Cc3ccccc3C(F)(F)F)[C@@H]2c2ccc(CO)cc2)cc1` at or above -2?
satisfied

Is z-score for O=C1NC(=O)C2C1C=CC(C(O)c1ccc3c(c1)OCO3)N2Nc1ccc(Cl)cc1Cl (configuration not stated) at or above -2?
not satisfied
